Biological target: T1, RBFOX1 RRM (Homo sapiens, UniProt Q9NWB1 109-208)
T1 sequence: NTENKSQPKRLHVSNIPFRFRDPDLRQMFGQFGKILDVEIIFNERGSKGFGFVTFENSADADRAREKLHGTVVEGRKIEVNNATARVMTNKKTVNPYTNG
Assay: EMSA; HiTS-Eq, 1 nM pool, 10 min; buffer printed only for the single-RNA assays: 10 mM Tris pH 7.5, 150 mM NaCl, 3.4 mM EDTA, 0.001% NP-40, 30 C
Details: tags: His6 N-terminal (pET28a); label: 5' 32P
The full ranking holds about 16,000 sequences; the median of “ka relative to ugcaugu” is about 0.0091, and the highest 2% start at about 0.032. For the sample, the highest values were picked, then their nearest neighbours and some sequences at random.
# Lookup of reported binding signal keyed by entry
Readout Kind: binding signal

>>> assay_result("GAGAUUG (DNA:RNA) RNA: GGGAGACCGGAAUUCAGAUUGUCCGAGAUUGUUAAAUCCCGUCGUAGCCACCA DNA 1: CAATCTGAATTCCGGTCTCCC DNA 2: TGGTGGCTACGACGGGATT")
"0.019 KA relative to UGCAUGU"
>>> assay_result("GAUGAAG (DNA:RNA) RNA: GGGAGACCGGAAUUCAGAUUGUCCGAUGAAGUUAAAUCCCGUCGUAGCCACCA DNA 1: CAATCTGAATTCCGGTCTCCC DNA 2: TGGTGGCTACGACGGGATT")
"0.0183 KA relative to UGCAUGU"
>>> assay_result("GUGAAUC (DNA:RNA) RNA: GGGAGACCGGAAUUCAGAUUGUCCGUGAAUCUUAAAUCCCGUCGUAGCCACCA DNA 1: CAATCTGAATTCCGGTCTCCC DNA 2: TGGTGGCTACGACGGGATT")
"0.0142 KA relative to UGCAUGU"
>>> assay_result("CCUAUCU (DNA:RNA) RNA: GGGAGACCGGAAUUCAGAUUGUCCCCUAUCUUUAAAUCCCGUCGUAGCCACCA DNA 1: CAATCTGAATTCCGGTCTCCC DNA 2: TGGTGGCTACGACGGGATT")
"0.00242 KA relative to UGCAUGU"
